Target: Cacnb1 (rat)
Assay: reporter assay of Huesken 2005
Details: siRNA
Oligonucleotides are given in HELM: sugar(base)linkage, 5' to 3'; d 2'-deoxyribose, r ribose, m 2'-O-methylribose, p phosphate. ss, as = sense and antisense strand
met means recorded normalised inhibition (eCFP-eYFP dual reporter) is 70% or above; not met means it is below 70%.

>  <Substance>
RNA1{r(G)p.r(G)p.r(C)p.r(C)p.r(G)p.r(G)p.r(U)p.r(U)p.r(C)p.r(U)p.r(G)p.r(G)p.r(G)p.r(G)p.r(C)p.r(G)p.r(C)p.r(A)p.r(A)p.d(T)p.d(T)}|RNA2{r(U)p.r(U)p.r(G)p.r(C)p.r(G)p.r(C)p.r(C)p.r(C)p.r(C)p.r(A)p.r(G)p.r(A)p.r(A)p.r(C)p.r(C)p.r(G)p.r(G)p.r(C)p.r(C)p.d(C)p.d(A)}$$$RNA1{StrandType:ss}|RNA2{StrandType:as}$

>  <Classification>
met

$$$$
>  <Substance>
RNA1{r(U)p.r(U)p.r(U)p.r(C)p.r(A)p.r(U)p.r(C)p.r(C)p.r(C)p.r(C)p.r(A)p.r(G)p.r(C)p.r(C)p.r(C)p.r(U)p.r(G)p.r(U)p.r(C)p.d(T)p.d(T)}|RNA2{r(G)p.r(A)p.r(C)p.r(A)p.r(G)p.r(G)p.r(G)p.r(C)p.r(U)p.r(G)p.r(G)p.r(G)p.r(G)p.r(A)p.r(U)p.r(G)p.r(A)p.r(A)p.r(A)p.d(C)p.d(C)}$$$RNA1{StrandType:ss}|RNA2{StrandType:as}$

>  <Classification>
not met

$$$$
>  <Substance>
RNA1{r(C)p.r(C)p.r(C)p.r(G)p.r(C)p.r(C)p.r(A)p.r(A)p.r(G)p.r(A)p.r(C)p.r(A)p.r(C)p.r(C)p.r(U)p.r(U)p.r(U)p.r(G)p.r(A)p.d(T)p.d(T)}|RNA2{r(U)p.r(C)p.r(A)p.r(A)p.r(A)p.r(G)p.r(G)p.r(U)p.r(G)p.r(U)p.r(C)p.r(U)p.r(U)p.r(G)p.r(G)p.r(C)p.r(G)p.r(G)p.r(G)p.d(A)p.d(T)}$$$RNA1{StrandType:ss}|RNA2{StrandType:as}$

>  <Classification>
not met

$$$$
>  <Substance>
RNA1{r(G)p.r(U)p.r(A)p.r(C)p.r(U)p.r(G)p.r(C)p.r(A)p.r(G)p.r(A)p.r(G)p.r(G)p.r(C)p.r(U)p.r(C)p.r(A)p.r(U)p.r(C)p.r(A)p.d(T)p.d(T)}|RNA2{r(U)p.r(G)p.r(A)p.r(U)p.r(G)p.r(A)p.r(G)p.r(C)p.r(C)p.r(U)p.r(C)p.r(U)p.r(G)p.r(C)p.r(A)p.r(G)p.r(U)p.r(A)p.r(C)p.d(C)p.d(T)}$$$RNA1{StrandType:ss}|RNA2{StrandType:as}$

>  <Classification>
met

$$$$

====

Target: UFC1
Experiment: reporter assay of Huesken 2005
Settings: siRNA
Oligonucleotides are written 5' to 3', each unit as a sugar letter and its base; * is a phosphorothioate linkage, no mark a phosphodiester; rarer units and linkages stand in square brackets, end groups in braces. Plain capitals give the bases only. d = 2'-deoxy (DNA); r = 2'-OH (RNA)
Metric: normalised inhibition (eCFP-eYFP dual reporter) (%)

>  <Substance>
sense rArGrUrUrGrUrGrGrGrUrGrCrArGrCrGrArCrUdTdT / antisense rArGrUrCrGrCrUrGrCrArCrCrCrArCrArArCrUdCdA

>  <Tested on>
UFC1

>  <Data value>
80.4

$$$$
>  <Substance>
sense rArGrCrGrArCrUrGrArArGrGrArGrGrArArUrAdTdT / antisense rUrArUrUrCrCrUrCrCrUrUrCrArGrUrCrGrCrUdGdC

>  <Tested on>
UFC1

>  <Data value>
93.1

$$$$
>  <Substance>
sense rUrCrArUrCrCrArArCrArCrArArArGrArGrArAdTdT / antisense rUrUrCrUrCrUrUrUrGrUrGrUrUrGrGrArUrGrAdCdG

>  <Tested on>
UFC1

>  <Data value>
93

$$$$
